- Tested on: MS2 coat protein
- Assay explanation: apparent KD of MS2 coat protein; designed switch direction (-1 OFF switch, 1 ON switch): -1; higher = weaker reporter binding
- Experimental setup: Eterna round: R95; input ligand: FMN 200 uM
Threshold check on apparent KD of MS2 coat protein: at or above 100 nM gives Condition met, strictly below gives Condition not met.

Previously resolved entries follow.
>>> class("GAAAAGGUAGGAUAUACGAAAAAAAAGGGUAGAAGAAAAACACAUGAGGAUCACCCAUGUAGAAGGACCAAAAG [salish99_ex2_r3_022] (puzzle: Exclusion 2)")
"Condition met"
>>> class("CCGGAAUUGAAGGAUAUAGGAGUCGAUAGACACCUAGAAGGUCAGACAUGAGGAUCACCCAUGUGUCCUACCGG [Fiskers Ex 6 - 86] (puzzle: Exclusion 6)")
"Condition not met"
>>> class("CGGAGCAGAGGGAGAUCCAACAUGAGGAUCACCCAUGUCUCAUAAGCUUUUUGCUCAUCUUAUUGUACCUUGGUGCU [JL ViennaUCT Edcesobi mod 5] (puzzle: Sensor v3, turn-off variant 1)")
"Condition not met"

I'd appreciate it if you could say whether GGUACUAACACGAGAGUGUUAGUACUAUAAGCUUGUGUUACAUGAGGAUCACCCAUGUCCUCAUAAGCUCGUCUUAU [Mat - Sensor v3 - Turn-off var 2 - D76] (puzzle: Sensor v3, turn-off variant 2) has apparent KD of MS2 coat protein at least equal to 100 nM.
Condition met

Please do the same for UAAUUUAGUGUGAGGAUAUGCUGGUCGAUAGAUCAGCAGAAGGCACAUGAGGAUCACCCAUGUAAUAUAUUAAA [Mat - Exclusion 4 - JL Mod - D35] (puzzle: Brourd's mod of Exclusion 4) as well.
Condition met

---

- Test system: MS2 coat protein
- Assay explanation: apparent KD of MS2 coat protein; designed switch direction (-1 OFF switch, 1 ON switch): -1; higher = weaker reporter binding
- Experimental setup: Eterna round: R95; input ligand: microRNA oligo, concentration not stated
Threshold check on apparent KD of MS2 coat protein: at or above 40 nM gives met, strictly below gives not met.

Previously resolved entries follow.
>>> class("AAUAACAGAGGAUAUACUAUUUUAUGUAUUUAUUAUUUUAAACAUGAGGAUCACCCAUGUAGAAGGCUGAGUAA [JMF 27] (puzzle: Exclusion 2)")
"not met"
>>> class("UUGAGCAGACGGAGAUCCAACAUGAGGAUCACCCAUGUCUCAAAAGCUUUUUGCUCAUCUUAUCGUACCUUGGUGCU [Mat - Sensor v3 - turn-off var 1 - JL Mod - D15] (puzzle: Sensor v3, turn-off variant 1)")
"not met"
>>> class("AGUAGAUCUACGCUUGCGUGGAUCUGCUAUGCAGGUGUCACAUGAGGAUCACCCAUGUCCUCAUUUGUUCGUCUUAU [JL turnoff v2 99.16] (puzzle: Sensor v3, turn-off variant 2)")
"not met"
>>> class("AGUACUAACACGAAAGUGUUAGUACAAUAAGCUUGUGAUACAUGAGGAUCACCCAUGUCCUCAUAAGCUCGUCUUAU [salish99_TOv2_r3_045] (puzzle: Sensor v3, turn-off variant 2)")
"met"
>>> class("AAGAGUGCAGGAUAUACGUGAUGGAGUAGGAUGAGAGAAGGACAUGAGGAUCACCCAUGUAGAAGGGCAGAGAG [JR_Exclu2_Sub059] (puzzle: Exclusion 2)")
"met"

I'd appreciate it if you could say whether UCAAGUUUUUUGUUUUUUAACAUGAGGAUCACCCAUGUAUUUUUAUAGUAUGUGUGAAUAAGAUCUCUUUGUCUUAU [JR_SV3TOV1_Sub098] (puzzle: Sensor v3, turn-off variant 1) has apparent KD of MS2 coat protein at least equal to 40 nM.
met

Please do the same for GUGUGCUGAGGAUAUACAGAGGAAGAUAAUAGAAUAGAAUGACAUGAGGAUCACCCAUGUAGAAGGCAGAGUGU [Excluse me!! 14 - Jieux - Exclusion 2] (puzzle: Exclusion 2) as well.
not met

Please do the same for UCGACCGGAGGAUAUUACGUAAAGUACAUGAGGAUCACCCAUGUGUGGUACCUCGAGUCGUAAGAAGGCCGAAAUA [Teisor] (puzzle: Exclusion 5) as well.
met

src = the supplement of paper PMC9170038
